Molecular target: recombinant human Myt1 (full length PKMYT1) (Homo sapiens (Human), UniProt Q99640)
Sequence (Q99640 whole entry): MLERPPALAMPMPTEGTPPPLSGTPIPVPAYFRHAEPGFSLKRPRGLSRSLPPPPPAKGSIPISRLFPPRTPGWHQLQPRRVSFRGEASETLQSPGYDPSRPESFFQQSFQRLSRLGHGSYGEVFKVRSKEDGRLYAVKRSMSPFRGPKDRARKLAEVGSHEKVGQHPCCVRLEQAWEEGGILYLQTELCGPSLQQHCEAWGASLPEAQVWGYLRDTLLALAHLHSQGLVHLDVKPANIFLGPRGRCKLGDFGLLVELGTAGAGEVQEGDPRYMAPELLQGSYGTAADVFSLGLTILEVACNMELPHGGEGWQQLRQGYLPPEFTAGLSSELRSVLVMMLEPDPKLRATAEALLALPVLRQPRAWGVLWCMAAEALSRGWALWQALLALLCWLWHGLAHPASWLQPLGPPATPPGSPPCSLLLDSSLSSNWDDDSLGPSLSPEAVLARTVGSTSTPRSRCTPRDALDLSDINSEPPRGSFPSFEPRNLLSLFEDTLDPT
Experiment: Recombinant human Myt1 kinase assay (ADP-Glo)
Assay type: biochemical
Conditions: 10 μM ATP
REPORTED ENDPOINT: pIC50
# reply with the number alone; pIC50 is -log10 of concentration in mol/L

For orientation, consider the following solved cases.
> print(dat)
                                   molecule  reported.endpoint  value
1  COc1cccnc1Nc1cc(F)ccc1-c1nc(C(N)=O)c(N)c(-c2c(C)ccc3[nH]ncc23)n1              pIC50   8.00
2  COCCNc1ccccc1-c1nc(C(N)=O)c(N)c(-c2c(C)ccc3[nH]ncc23)n1              pIC50   8.52
3  Cc1cccnc1Nc1ncccc1-c1nc(C(N)=O)c(N)c(-c2c(C)ccc3[nH]ncc23)n1              pIC50   8.40

--- query ---
-- ask Hello, I am looking for reported pIC50 with recombinant human Myt1 (full length PKMYT1) (Homo sapiens (Human), UniProt Q99640) for Cc1ccc2[nH]ncc2c1-c1cc(-c2ccnc(OCCN3CCCC3)n2)nc(C(N)=O)c1N (atropisomer, axis not shown) . Could you help?
-- reply 6.07

----------
Target: recombinant human Myt1 (full length PKMYT1) (Homo sapiens (Human))
Test: Recombinant human Myt1 kinase assay (ADP-Glo)
Details: 10 μM ATP
This section presents compounds with their documented pIC50 values.
Quick note: pIC50 values are minus log10 of concentrations in mol/L.

See these solved cases before continuing.
> print(dat)
                                   compound  reported.endpoint  value
1  Cc1ccc2[nH]ncc2c1-c1nc(-c2ccc(CN3CCOCC3)s2)nc(C(N)=O)c1N              pIC50   7.77
2  COc1ccc(COc2cccc(-c3cc(-c4c(C)ccc5[nH]ncc45)c(N)c(C(N)=O)n3)n2)cc1              pIC50   5.94
3  Cc1ccc2[nH]ncc2c1-c1cc(-c2ccnc(OC3CCOCC3)n2)nc(C(N)=O)c1N [Compound 169]              pIC50   8.10

Consider the additional compound presented here.
-- ask Need pIC50, item "Cc1ccc2[nH]ncc2c1-c1nc(-c2ccccc2-c2ncc[nH]2)nc(C(N)=O)c1N"
-- reply 7.85

----------
Molecular target: recombinant human Myt1 (full length PKMYT1) (Homo sapiens (Human), UniProt Q99640)
Test: Recombinant human Myt1 kinase assay (ADP-Glo)
Conditions: 10 μM ATP
pIC50: −log10 of the molar value.
# pIC50 >= 8 gives 1.0, anything below gives 0.0

Before answering, review these 4 worked examples.
> print(dat)
                                   compound  assigned.class
1  CCC(COc1nccc(-c2cc(-c3c(C)ccc4[nH]ncc34)c(N)c(C(N)=O)n2)n1)OC (stereo not drawn) [Compound 302]             1.0
2  Cc1ccc2[nH]ncc2c1-c1nc(-c2ccccc2NCC(F)(F)F)nc(C(N)=O)c1N [Compound 409]             1.0
3  Cc1ccc(O)cc1-c1nc(-c2cccnc2)nc(C(N)=O)c1N [Compound 21]             0.0
4  Cc1ccc2[nH]ncc2c1-c1nc(-c2cccc(C(=O)N(C)C)c2)nc(C(N)=O)c1N [Compound 284]             0.0

-- ask Can Cc1ccc2[nH]ncc2c1-c1nc(-c2cccc(Cl)c2)nc(C(N)=O)c1N [Compound 111] be said to have pIC50 at or above 8?
-- reply 0.0

-- ask Do the same for Cc1ccc2[nH]ncc2c1-c1nc(-c2cccc(C=O)c2)nc(C(N)=O)c1N [Compound 304] please
-- reply 0.0

-- ask How about Cc1ccc2[nH]ncc2c1-c1cc(-c2cccc(Oc3ccccn3)n2)nc(C(N)=O)c1N [Compound 202] ?
-- reply 0.0

----------
Target: recombinant human Myt1 (full length PKMYT1) (Homo sapiens (Human), UniProt Q99640)
Assay: Recombinant human Myt1 kinase assay (ADP-Glo)
Conditions: 10 μM ATP
REPORTED ENDPOINT: pIC50
Here pIC50 is given on a logarithmic scale as minus log10 of the concentration in mol/L.

Illustrative cases are given below, each with its answer.
> print(dat)
                                   compound  reported.endpoint  value
1  Cc1ccc2[nH]ncc2c1-c1cc(-c2ccnc(OC3COC3)n2)nc(C(N)=O)c1N [Compound 176]              pIC50   6.11
2  Cc1ccc2[nH]ncc2c1-c1cc(-c2cccc(OC[C@H](N)c3ccccc3)n2)nc(C(N)=O)c1N [Compound 276]              pIC50   8.70
3  CCOc1ccccc1-c1nc(C(N)=O)c(N)c(-c2c(C)ccc3[nH]ncc23)n1              pIC50   7.28
4  Cc1ccc2[nH]ncc2c1-c1cc(-c2cccnc2)nc(C(N)=O)c1N [Compound 107]              pIC50   7.96
5  Cc1ccc2[nH]ncc2c1-c1nc(-c2ccccc2N)nc(C(N)=O)c1N              pIC50   7.32
6  Cc1ccc2[nH]ncc2c1-c1nc(-c2cccnc2NCC(F)F)nc(C(N)=O)c1N              pIC50   8.30
7  Cc1ccc(O)c(C)c1-c1cc(C2CC2)nc(C(N)=O)c1N              pIC50   7.74
8  Cc1ccc2[nH]ncc2c1-c1nc(-c2cccnc2Nc2cscn2)nc(C(N)=O)c1N              pIC50   7.77

Now look at this one.
-- ask Returns the measured pIC50 for the input compound. Input: "Cc1ccc2[nH]ncc2c1-c1cc(-c2cccc(N3CCOCC3)n2)nc(C(N)=O)c1N"
-- reply 7.89

----------
Molecular target: recombinant human Myt1 (full length PKMYT1) (Homo sapiens (Human), UniProt Q99640)
Assay: Recombinant human Myt1 kinase assay (ADP-Glo)
Conditions: 10 μM ATP
Each entry below carries its reported pIC50.
Scale for pIC50: -log10 of concentration given in mol/L; no unit attached.

Reference set (6 entries):
> print(dat)
                                   compound  value
1  Cc1ccc2[nH]ncc2c1-c1cc(-c2ccnc(N3CCOCC3)n2)nc(C(N)=O)c1N   8.05
2  Cc1ccc2[nH]ncc2c1-c1cc(-c2cccc(OCc3ncccn3)n2)nc(C(N)=O)c1N [Compound 184]   8.22
3  NC(=O)c1nc(-c2ccccc2)nc(-c2cccc3[nH]ncc23)c1N   7.30
4  Cc1ccc2[nH]ncc2c1-c1nc(-c2nccs2)nc(C(N)=O)c1N   7.10
5  Cc1ccc2[nH]ncc2c1-c1cc(-c2cn(C)cn2)nc(C(N)=O)c1N   7.28
6  Cc1ccc2[nH]ncc2c1-c1cc(-c2cccc(OCc3ncccn3)n2)nc(C(N)=O)c1N (atropisomer, axis not shown) [Compound 234]   5.73

Note: attention shifts to another entry.
-- ask Requested read-out: pIC50. Entry: "Cc1ccc2[nH]ncc2c1-c1cc(-c2ccnc(S(C)(=O)=O)n2)nc(C(N)=O)c1N"
-- reply 7.54

----------
Catalogue of log10(IC50) values
Biological target: recombinant human Myt1 (full length PKMYT1) (Homo sapiens (Human))
Assay: Recombinant human Myt1 kinase assay (ADP-Glo)
Conditions: 10 μM ATP
Please interpret these as log10 of IC50 where IC50 is in nM.

> print(dat)
                                   compound                               test.system  value
1  Cc1ccc2[nH]ncc2c1-c1nc(-c2ccccc2NC(=O)C2(C)CC2(Cl)Cl)nc(C(N)=O)c1N (stereo not shown)  recombinant human Myt1 (full length PKMYT1) (Homo sapiens (Human))   0.90
2  Cc1ccc2[nH]ncc2c1-c1nc(-c2ccc(Oc3ccccc3)cc2)nc(C(N)=O)c1N  recombinant human Myt1 (full length PKMYT1) (Homo sapiens (Human))   3.05
3  Cc1ccc2[nH]ncc2c1-c1nc(-c2cc(F)c(F)cc2NS(=O)(=O)C2CC2)nc(C(N)=O)c1N  recombinant human Myt1 (full length PKMYT1) (Homo sapiens (Human))   0.70
4  Cc1ccc(O)c(C)c1-c1cc(-c2ccnc(N)c2)nc(C(N)=O)c1N [Compound 45]  recombinant human Myt1 (full length PKMYT1) (Homo sapiens (Human))   0.30
5  Cc1ccc2[nH]ncc2c1-c1nc(-c2cc(Cl)ccc2NC(=O)C2(C)CC2)nc(C(N)=O)c1N  recombinant human Myt1 (full length PKMYT1) (Homo sapiens (Human))   0.78

-- ask Give the measured log10(IC50) of "Cc1ccc(O)cc1-c1nc(-c2cccc(C(N)=O)c2)nc(C(N)=O)c1N" .
-- reply 1.40

-- ask And "CNS(=O)(=O)c1ccccc1-c1nc(C(N)=O)c(N)c(-c2c(C)ccc3[nH]ncc23)n1" ?
-- reply 3.40

-- ask Another compound to look at: "Cc1ccc2[nH]ncc2c1-c1cc(-c2cccc(OCc3nccs3)n2)nc(C(N)=O)c1N"
-- reply 0.78

-- ask What would you report for "Cc1ccc2[nH]ncc2c1-c1nc(-c2ccccc2NC(=O)C(C)(C)F)nc(C(N)=O)c1N" ?
-- reply 0.48

-- ask Query "Cc1ccc2[nH]ncc2c1-c1nc(-c2ccc(F)cc2Nc2ncccc2C#N)nc(C(N)=O)c1N" next
-- reply 0.60

Measured values drawn from patent US20250304537A1 for this set.
